Target: human recombinant acetylcholinesterase (AChE or HuAChE) (Homo sapiens, UniProt P22303)
Test: biochemical
Type: biochemical
ASSAY ENDPOINT: IC50 (nM)
Kindly provide the numeric value in nM only, without the unit symbol.

See these solved cases before continuing.
1) O=C(CCCCC1CCSS1)NCCCNc1c2c(nc3cc(Cl)ccc13)CCCC2 (racemic)
0.253
2) COc1cc2nc(Cl)nc(NCCCNC(=O)CCCCC3CCSS3)c2cc1OC (stereo not shown)
192000
3) O=C(CCCC[C@@H]1CCSS1)NCCCNc1c2c(nc3cc(Cl)ccc13)CCCC2
0.23

Shift focus to the following entry.
Lab note: O=C(CCCCc1cccs1)NCCCNc1c2c(nc3cc(Cl)ccc13)CCCC2 gave IC50 of 2.66

###

Molecular target: human recombinant AChE (Homo sapiens)
Sequence (P22303 32-614): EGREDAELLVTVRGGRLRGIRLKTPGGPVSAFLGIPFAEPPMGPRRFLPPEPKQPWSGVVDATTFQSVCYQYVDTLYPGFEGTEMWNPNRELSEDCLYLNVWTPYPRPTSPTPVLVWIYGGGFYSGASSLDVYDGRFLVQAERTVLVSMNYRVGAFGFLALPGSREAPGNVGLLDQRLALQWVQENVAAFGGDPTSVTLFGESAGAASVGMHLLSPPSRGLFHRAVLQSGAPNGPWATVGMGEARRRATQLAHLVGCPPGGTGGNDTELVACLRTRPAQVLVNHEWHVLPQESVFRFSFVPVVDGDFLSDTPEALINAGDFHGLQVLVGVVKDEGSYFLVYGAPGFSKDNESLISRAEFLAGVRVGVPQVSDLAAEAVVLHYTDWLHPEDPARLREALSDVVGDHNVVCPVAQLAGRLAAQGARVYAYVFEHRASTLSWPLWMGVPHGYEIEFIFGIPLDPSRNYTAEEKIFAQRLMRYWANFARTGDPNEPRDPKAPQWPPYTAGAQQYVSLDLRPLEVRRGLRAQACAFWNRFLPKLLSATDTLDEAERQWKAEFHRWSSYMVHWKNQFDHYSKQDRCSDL
Assay: Action mechanism and inhibition constant Ki (Lineweaver-Burk method)
ASSAY ENDPOINT: Ki (nM)
Kindly provide the numeric value in nM only, without the unit symbol.

Lab note: O=C(CCCCC1CCSS1)NCCCNc1c2c(nc3cc(Cl)ccc13)CCCC2 (racemic) gave Ki of 0.155

###

Molecular target: butyrylcholinesterase (BChE) from human serum (Homo sapiens, UniProt P06276)
Assay: biochemical
Format: biochemical
Details: read-out: IC50 BChE
Reported pIC50 by item:
Bear in mind: pIC50 is minus log10 of a mol/L concentration; give just that figure.

1. O=C(CCCCC1CCSS1)NCCCCCNc1c2c(nc3ccccc13)CCCC2 (centres unmarked) [Compound 4]
8.83

Shift focus to the following entry.
Lab note: O=C(CCCCC1CCSS1)NCCCCNc1c2c(nc3ccccc13)CCCC2 (centres unmarked) [Compound 3] gave pIC50 of 8.30

###

Target: AChE-induced Aβ40 aggregation (Homo sapiens)
Assay: biochemical
Conditions: read-out: % of inhibition ± SEM of AChE-induced Aβ40 aggregation
ASSAY ENDPOINT: inhibition at 100 µM

See these solved cases before continuing.
1) O=C(CCCCC1CCSS1)NCCCNc1c2c(nc3cc(Cl)ccc13)CCCC2 (racemic) [Compound 7]
61.8%
2) CC(c1cccc(OCCCNC(=O)CCCCC2CCSS2)c1)N(C)C (stereo not shown) [Compound 19]
9%
3) O=C(CCCC[C@@H]1CCSS1)NCCCNc1c2c(nc3cc(Cl)ccc13)CCCC2 [Compound 24]
68%

Shift focus to the following entry.
Lab note: O=C(CCCCc1cccs1)NCCCNc1c2c(nc3cc(Cl)ccc13)CCCC2 [Compound 21] gave inhibition at 100 µM of 24.1%

###

Target: human recombinant acetylcholinesterase (AChE or HuAChE) (Homo sapiens)
Assay: biochemical
Type: biochemical
Settings: read-out: IC50 AChE
ASSAY ENDPOINT: IC50 (nM)
Kindly provide the numeric value in nM only, without the unit symbol.

Lab note: NCCCNc1c2c(nc3cc(Cl)ccc13)CCCC2 [Compound 15] gave IC50 of 21.5

###

Target: AChE-induced Aβ40 aggregation (Homo sapiens, UniProt P22303)
Sequence (P22303 32-614): as above
Experiment: biochemical
Details: read-out: % of inhibition ± SEM of AChE-induced Aβ40 aggregation
Reported inhibition at 100 µM by item:
Field: value (include unit after the number)

1. CCN(CCCCCCNC(=O)CCCCC1CCSS1)Cc1ccccc1OC (stereo not shown)
16.8%
2. COc1cccc(C(C)N(C)CCCNC(=O)CCCCC2CCSS2)c1 (stereo not shown)
15.6%
3. NCCCNc1c2c(nc3cc(Cl)ccc13)CCCC2
25%

Shift focus to the following entry.
Response field inhibition at 100 µM (AChE-induced Aβ40 aggregation (Homo sapiens, UniProt P22303)) for item COc1cc2nc(Cl)nc(NCCCNC(=O)CCCCC3CCSS3)c2cc1OC (stereo not shown) : 32.1%

###

Biological target: butyrylcholinesterase (BChE) from human serum (Homo sapiens, UniProt P06276)
Assay: biochemical
Format: biochemical
Conditions: BChE from human serum; mean of two independent measurements, each in duplicate; read-out: IC50 BChE
ASSAY ENDPOINT: IC50
Field: value (include unit after the number)

See these solved cases before continuing.
1) O=C(CCCCc1cccs1)NCCCNc1c2c(nc3cc(Cl)ccc13)CCCC2
30.6 nM
2) COc1cccc(C(C)N(C)CCCNC(=O)CCCCC2CCSS2)c1 (stereo not drawn)
398 nM

Lab note: CCN(CCCCCCNC(=O)CCCCC1CCSS1)Cc1ccccc1OC (stereo not drawn) gave IC50 of 2490 nM

###

Molecular target: human recombinant acetylcholinesterase (AChE or HuAChE) (Homo sapiens, UniProt P22303)
Assay: biochemical
Format: biochemical
Conditions: human recombinant AChE; mean of two independent measurements, each in duplicate; read-out: IC50 AChE
ASSAY ENDPOINT: pIC50
Bear in mind: pIC50 is minus log10 of a mol/L concentration; give just that figure.

See these solved cases before continuing.
1. COc1cccc(C(C)N(C)CCCNC(=O)CCCCC2CCSS2)c1 (stereo not drawn)
4.13
2. Nc1c2c(nc3cc(Cl)ccc13)CC(CNC(=O)CCCCC1CCSS1)CC2 (stereo not drawn)
6.63

Shift focus to the following entry.
Lab note: O=C(CCCCC1CCSS1)NCCCCCCNc1c2c(nc3ccccc13)CCCC2 (stereo not drawn) gave pIC50 of 7.52
